Reference for the values: patent US8541588B2

molecular target: Nav1.7 (or SCN9A) channel; HEK cells stably transfected with hSCN9A (Homo sapiens, UniProt Q15858); construct: expressed in transfected cells; test: Nav1.7 block, PatchXpress 7000 automated whole-cell voltage clamp, estimated IC50 (EIC50); type: cell-based; conditions: estimated IC50; hSCN9A HEK cells, PatchXpress platform; Examples 283-814
Sequence (Q15858 whole entry): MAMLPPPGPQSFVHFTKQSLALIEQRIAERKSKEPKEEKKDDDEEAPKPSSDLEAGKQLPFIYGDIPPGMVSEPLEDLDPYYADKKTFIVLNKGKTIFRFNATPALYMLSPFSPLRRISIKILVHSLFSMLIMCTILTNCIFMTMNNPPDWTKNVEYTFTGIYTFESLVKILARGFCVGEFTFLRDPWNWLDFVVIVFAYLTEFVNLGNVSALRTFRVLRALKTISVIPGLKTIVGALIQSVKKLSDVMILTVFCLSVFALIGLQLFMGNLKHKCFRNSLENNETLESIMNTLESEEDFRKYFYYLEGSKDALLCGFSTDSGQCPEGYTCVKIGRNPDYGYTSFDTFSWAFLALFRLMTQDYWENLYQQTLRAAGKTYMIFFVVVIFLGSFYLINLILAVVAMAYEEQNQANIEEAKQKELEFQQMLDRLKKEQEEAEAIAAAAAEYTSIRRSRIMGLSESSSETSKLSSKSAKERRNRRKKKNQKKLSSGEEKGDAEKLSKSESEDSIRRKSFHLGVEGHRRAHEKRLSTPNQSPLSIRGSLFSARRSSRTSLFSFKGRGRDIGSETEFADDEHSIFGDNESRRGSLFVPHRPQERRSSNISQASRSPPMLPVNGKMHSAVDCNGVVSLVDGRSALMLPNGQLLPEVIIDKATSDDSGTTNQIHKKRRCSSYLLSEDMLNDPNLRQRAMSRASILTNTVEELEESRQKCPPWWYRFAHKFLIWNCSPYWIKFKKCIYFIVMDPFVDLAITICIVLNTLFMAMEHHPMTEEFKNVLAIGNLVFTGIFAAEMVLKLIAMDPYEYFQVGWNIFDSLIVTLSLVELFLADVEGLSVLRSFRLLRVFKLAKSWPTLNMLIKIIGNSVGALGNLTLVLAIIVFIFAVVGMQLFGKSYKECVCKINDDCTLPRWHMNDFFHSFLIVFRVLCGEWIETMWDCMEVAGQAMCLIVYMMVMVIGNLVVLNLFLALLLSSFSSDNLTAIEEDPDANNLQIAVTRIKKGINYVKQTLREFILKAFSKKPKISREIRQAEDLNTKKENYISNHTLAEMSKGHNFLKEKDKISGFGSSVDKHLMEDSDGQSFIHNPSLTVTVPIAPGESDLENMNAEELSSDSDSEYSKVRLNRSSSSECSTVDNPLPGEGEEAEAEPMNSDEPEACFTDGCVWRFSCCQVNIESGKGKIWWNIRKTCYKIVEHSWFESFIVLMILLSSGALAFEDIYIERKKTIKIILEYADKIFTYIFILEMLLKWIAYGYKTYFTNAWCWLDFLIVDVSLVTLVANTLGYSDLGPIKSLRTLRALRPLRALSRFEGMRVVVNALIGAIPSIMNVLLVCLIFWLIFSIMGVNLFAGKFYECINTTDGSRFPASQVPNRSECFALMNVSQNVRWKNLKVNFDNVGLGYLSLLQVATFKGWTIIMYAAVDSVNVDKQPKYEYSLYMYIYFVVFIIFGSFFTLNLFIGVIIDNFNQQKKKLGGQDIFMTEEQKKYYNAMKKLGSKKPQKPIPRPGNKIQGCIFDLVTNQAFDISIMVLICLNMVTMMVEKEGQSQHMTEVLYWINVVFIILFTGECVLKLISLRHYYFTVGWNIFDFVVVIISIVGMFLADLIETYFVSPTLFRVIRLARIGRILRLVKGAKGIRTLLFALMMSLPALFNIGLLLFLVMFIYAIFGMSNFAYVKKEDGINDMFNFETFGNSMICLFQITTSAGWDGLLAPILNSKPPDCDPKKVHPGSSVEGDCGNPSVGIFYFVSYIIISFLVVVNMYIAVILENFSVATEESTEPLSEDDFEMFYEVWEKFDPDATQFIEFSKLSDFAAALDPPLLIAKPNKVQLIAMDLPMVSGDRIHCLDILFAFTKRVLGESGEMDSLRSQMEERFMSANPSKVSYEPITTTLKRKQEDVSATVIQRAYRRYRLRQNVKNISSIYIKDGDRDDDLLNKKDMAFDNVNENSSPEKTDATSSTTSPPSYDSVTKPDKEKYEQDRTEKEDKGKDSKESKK
MEASURED_QUANTITY: IC50 (nM)

(P) Cc1ccnc(NS(=O)(=O)c2ccc(Oc3ccccc3-c3ccccc3)c(C#N)c2)n1
(Q) Cc1ccccc1-c1cc(Cl)ccc1Oc1ccc(S(=O)(=O)Nc2nccs2)cc1C#N
Task: Could you point out whether the larger IC50 belongs to P or to Q ? Indicate which entry you chose by stating its label.
Result: P
(P: 11000 nM, Q: 110 nM)

(a) O=S(=O)(Nc1nccs1)c1ccc(Oc2cc(Cl)ccc2-c2ccn[nH]2)c(F)c1
(b) Cn1nccc1-c1cc(CCCO)ccc1Oc1ccc(S(=O)(=O)Nc2ncc(F)s2)cc1C#N
(c) O=S(=O)(Nc1cscn1)c1ccc(Oc2ccc(Cl)cc2-c2cn[nH]c2)c(F)c1
Task: Number of compounds to sort: 3. Sort criterion: IC50, ascending. Hello, could you send the labels back in the order asked? Thank you.
Result: a, b, c

(1) Nc1cccc(-c2cc(F)ccc2Oc2cc(F)c(S(=O)(=O)Nc3ncns3)cc2F)n1
(2) CCn1nc(C(F)(F)F)cc1-c1ccc(Oc2ccc(S(=O)(=O)Nc3cc(C#N)ccn3)cc2C#N)cc1
Task: Could you point out whether the larger IC50 belongs to 1 or to 2 ? Indicate which entry you chose by stating its label.
Result: 2
(2: 18000 nM, 1: 190 nM)

(I) O=S(=O)(Nc1cscn1)c1cc(Cl)c(Oc2ccc(F)cc2-c2ccn[nH]2)cc1F
(II) Cc1nc(NS(=O)(=O)c2ccc(Oc3ccccc3-c3ccccc3)c(C#N)c2)sc1F
Task: Lower IC50: I or II ? Indicate which entry you chose by stating its label.
Result: I
